MIC values for the compounds below.
- Test system: Streptococcus pyogenes
- Experiment summary: In vitro antibacterial activity against Streptococcus pyogenes 930
- Type: functional
Field: numeric (µg/mL). Do not append units.

compound="CN1CCN(c2cc3c(cc2F)c(=O)c(C(=O)O)cn3-c2ccc(F)cc2)CC1.Cl [DIFLOXACIN HYDROCHLORIDE]" reported_measurement=1.56
compound="CCn1cc(C(=O)O)c(=O)c2cc(F)c(N3CCNCC3)cc21 [NORFLOXACIN]" reported_measurement=3.1
compound="O=C(O)c1cn(C2CC2)c2cc(N3CCNCC3)c(F)cc2c1=O [CIPROFLOXACIN]" reported_measurement=0.39
compound=CN1CCN(c2nc3c(cc2F)c(=O)c(C(=O)O)cn3-c2ccc(F)cc2F)CC1 reported_measurement=1.56

# evaluate next
Prompt: Param item = CN1CCN(c2nc3c(cc2F)c(=O)c(C(=O)O)cn3-c2ccc(F)cc2)CC1 ; retrieve measured MIC.
Response: 3.1

Cited source for all entries: ChEMBL document CHEMBL1123369
